Attribution: patent US20090221573A1

# Tested on: smooth muscle cells of the human coronary artery
# protocolSummary: Inhibition of the horizontal migration of smooth muscle cells (wounded monolayer)
# Format: cell-based
# recordedConditions: 48 h, read-out: Inhibition of the horizontal migration of smooth muscle cells of the human coronary artery, IC50
attributeMeasured: pIC50
# pIC50 = -log10(concentration in molar units)

- molecule: "O=C(O)CCCCN(CCc1ccccc1OCc1ccc(CCc2ccccc2)cc1)Cc1ccc(C(=O)O)cc1 [Compound I]"
  pIC50: 8.30

Given the entry COC(=O)Nc1c(N)nc(-c2nn(Cc3ccccc3F)c3ncccc23)nc1N [IVa] , what pIC50 was observed with smooth muscle cells of the human coronary artery?
7.52
